- Assay: Apparent permeability across apical to basolateral side in human Caco2 cells in absence of efflux inhibitor by ABBA assay
- Type: ADME, cell-based
- Conditions used: Caco-2
Parameter: Papp A→B (×10⁻⁶ cm/s)

Cc1cc2ncnn2cc1Nc1ncc2c(n1)n(C1CCCCC1)c(=O)n2C :: 24

I: Cc1cc2ncnn2cc1Nc1ncc2c(n1)n([C@H]1CC[C@@](C)(O)CC1)c(=O)n2C
II: Cc1cc2nccn2cc1Nc1ncc2c(n1)n([C@H]1CC[C@H](O)CC1)c(=O)n2C
III: Cc1cc2nccn2cc1Nc1ncc2c(n1)n(C1CCOCC1)c(=O)n2C
IV: Cc1cc2ncnn2cc1Nc1ncc2c(n1)n([C@H]1CC[C@](C)(O)CC1)c(=O)n2C
Output the entries ranked by Papp A→B from maximum down to minimum. Provide the ranking by listing each label in its place in the requested order.
I, III, IV, II
(I: 24 ×10⁻⁶ cm/s, III: 11 ×10⁻⁶ cm/s, IV: 0.7 ×10⁻⁶ cm/s, II: 0.4 ×10⁻⁶ cm/s)

a: Cc1cc2ncnn2cc1Nc1ncc2c(n1)n([C@H]1CC[C@H](O)CC1)c(=O)n2C
b: Cc1cc2ncnn2cc1Nc1ncc2c(n1)n(C1CCC(F)(F)CC1)c(=O)n2C
From the items above, decide which of a and b has the lower Papp A→B reading. Reply with the label of the item you choose.
a

----------
- Assay: Solubility of the compound in simulated gastric fluid using crystalline sample
- Type: physicochemical
Parameter: solubility thermodynamic

Name the reported solubility thermodynamic value associated with the molecule Cc1cc2ncnn2cc1Nc1ncc2c(n1)n(C1CCOCC1)c(=O)n2C [AZD-7648]
> 10 mM

----------
- Assay: Cmax in ATM knock out human FADU cells xenografted SCID mouse at 100 mg/kg, po qd measured after 2 hrs
- Type: ADME, organism-based
- Conditions used: in vivo, read-out: T>IC50
Parameter: Cmax (µM)
The reply should be a number in µM, with the unit left off.

Name the reported Cmax value associated with the compound Cc1cc2ncnn2cc1Nc1ncc2c(n1)n(C1CCOCC1)c(=O)n2C [AZD-7648]
17

----------
- Assay: Intrinsic clearance in human microsomes
- Assay type: ADME, Microsome
Parameter: microsomal CLint (µL/min/mg)

Cc1cc2ncnn2cc1Nc1ncc2c(n1)n(C1CCC(F)(F)CC1)c(=O)n2C :: 68

A: Cc1cc2ncnn2cc1Nc1ncc2c(n1)n(C1CCCCC1)c(=O)n2C
B: COc1ccc(Nc2ncc3c(n2)n([C@H]2CC[C@H](O)CC2)c(=O)n3C)c(C)c1
From the items above, decide which of A and B has the lower microsomal CLint reading. Reply with the label of the item you choose.
B
(B: 49 µL/min/mg, A: 93 µL/min/mg)

----------
- Assay: physchem
- Conditions used: buffer, pH 7.4
Parameter: logD

Here's what some known entries look like.
Cc1cc2ncnn2cc1Nc1ncc2c(n1)n([C@H]1CC[C@H](O)CC1)c(=O)n2C :: 1.3
COc1ccc(Nc2ncc3c(n2)n(-c2ccccc2)c(=O)n3C)c(C)c1 :: 2.8
Cc1ccccc1Nc1ncc2c(n1)n([C@H]1CC[C@H](O)CC1)c(=O)n2C :: 2.5
Cc1cc2nccn2cc1Nc1ncc2c(n1)n([C@H]1CC[C@H](O)CC1)c(=O)n2C :: 1.4
Cc1cc2ncnn2cc1Nc1ncc2c(n1)n([C@H]1CC[C@](C)(O)CC1)c(=O)n2C :: 1.1
Cn1c(=O)n([C@H]2CC[C@H](O)CC2)c2nc(Nc3ccccc3)ncc21 :: 2.4

A: Cc1c(Nc2ncc3c(n2)n([C@H]2CC[C@H](O)CC2)c(=O)n3C)ccc2nccn12
B: COc1ccc(C)c(Nc2ncc3c(n2)n([C@H]2CC[C@H](O)CC2)c(=O)n3C)c1
C: Cn1c(=O)n([C@H]2CC[C@H](O)CC2)c2nc(Nc3ccc4nccn4c3)ncc21
D: COc1ccc(Nc2ncc3c(n2)n(C2CCCCC2)c(=O)n3C)c(C)c1
Output the entries ranked by logD from maximum down to minimum. Provide the ranking by listing each label in its place in the requested order.
D, B, C, A
(D: 4.1, B: 2.6, C: 1.8, A: 1.2)
